Species: Rattus norvegicus
Experimental details: Open TG-GATES - Regimen: Daily Repeat
Assay type: toxicity, organism-based, Sprague-Dawley
Set-up: regimen Daily Repeat, gender Male, age 6 weeks
Setup conditions: in vivo, po, 300 mg/kg, […], tissue Plasma, route gavage, dose level Middle, time 28 day
For each of the compounds below, state its A/G.
Respond numerically, and do not add a unit to the figure.

Looking up CNC(=C[N+](=O)[O-])NCCSCc1ccc(CN(C)C)o1 , I found its A/G recorded as 1.3

Looking up CN/C(=N/CCSCc1nc[nH]c1C)NC#N , I found its A/G recorded as 1.3

Looking up Cc1nnc2n1-c1ccc(Cl)cc1C(c1ccccc1Cl)=NC2 , I found its A/G recorded as 0.8

Looking up O=C(OC[C@H]1O[C@@H](OC(=O)c2cc(O)c(O)c(OC(=O)c3cc(O)c(O)c(O)c3)c2)[C@H](OC(=O)c2cc(O)c(O)c(OC(=O)c3cc(O)c(O)c(O)c3)c2)[C@@H](OC(=O)c2cc(O)c(O)c(OC(=O)c3cc(O)c(O)c(O)c3)c2)[C@@H]1OC(=O)c1cc(O)c(O)c(OC(=O)c2cc(O)c(O)c(O)c2)c1)c1cc(O)c(O)c(OC(=O)c2cc(O)c(O)c(O)c2)c1 , I found its A/G recorded as 1.8
